- measured_on: microRNA 21
- experiment_notes: Inhibition of miR-21 RNA in human HeLa cells harboring miR-21 binding sequence in 3'-UTR of firefly luciferase gene assessed as increase in luciferase expression incubated for 48 hrs by Bright-Glo luciferase reporter gene assay
experimental_readout: EC50 (µM)
Give the number; µM is assumed, so skip it.

Input line: Any idea what its EC50 is? The compound is C#CCOc1ccc(-c2noc(-c3nnn(-c4cccc(/C(C)=N/O)c4)c3N)n2)cc1
Output line: 5.3

---

Answer each item with its documented fold change (FC).
- Test system: microRNA 21
- experiment_notes: Inhibition of miR-21 RNA in human HeLa cells harboring miR-21 binding sequence in 3'-UTR of firefly luciferase gene assessed as increase in luciferase expression incubated for 48 hrs by Bright-Glo luciferase reporter gene assay relative to control
- Assay type: cell-based
// print number alone

Input line: Any idea what its fold change (FC) is? The compound is Nc1c(-c2nc(-c3cccs3)no2)nnn1-c1ccccc1CO
Output line: 2.23

Input line: Do the same for Nc1c(-c2nc(-c3cccs3)no2)nnn1-c1cccc(F)c1 please
Output line: 1.93

Input line: Do the same for Nc1c(-c2nc(-c3cccs3)no2)nnn1-c1cccc(C(=O)c2ccccc2)c1 please
Output line: 1.82

Input line: Do the same for C#CCOc1cccc(-n2nnc(-c3nc(-c4cccs4)no3)c2N)c1 please
Output line: 1.61

Input line: Do the same for CCOc1ccc(-c2noc(-c3nnn(-c4cccc(/C(C)=N/O)c4)c3N)n2)cc1 please
Output line: 3.14

Input line: Do the same for COc1cccc(-n2nnc(-c3nc(-c4cccs4)no3)c2N)c1 please
Output line: 2.84

Input line: Do the same for C/C(=N\O)c1cccc(-n2nnc(-c3nc(-c4ccc(O)cc4)no3)c2N)c1 please
Output line: 1.98

Input line: Do the same for Nc1c(-c2nc(-c3cccs3)no2)nnn1-c1cccc(C(F)(F)F)c1 please
Output line: 1.08

Input line: Do the same for COc1cccc(-n2nnc(-c3nnc(-c4cccs4)o3)c2N)c1 please
Output line: 2.68

---

- System: A498
- experiment_notes: Inhibition of colony formation of human A498 cells after 2 weeks by crystal violet staining-based microscopic analysis
- Type: functional, cell-based
- measurement_setup: A498, 336 h
experimental_readout: IC50 (nM)
Give the number; nM is assumed, so skip it.

Input line: Any idea what its IC50 is? The compound is CC[C@@]1(O)C(=O)OCc2c1cc1n(c2=O)Cc2cc3c(CN(C)C)c(O)ccc3nc2-1 [TOPOTECAN]
Output line: 2000

---

- System: microRNA 21
- experiment_notes: Inhibition of miR-21 RNA in human HeLa cells harboring miR-21 binding sequence in 3'-UTR of firefly luciferase gene assessed as increase in luciferase expression incubated for 48 hrs by Bright-Glo luciferase reporter gene assay relative to control
- Format: cell-based
Response field label: string, one of 1.0 (fold change (FC) strictly below 2) or 0.0.

Input line: State whether 2 exceeds fold change (FC) recorded for Fc1cccc(-n2cc(-c3nc(-c4cccs4)no3)nn2)c1 .
Output line: 1.0

Input line: Do the same for COc1cccc(-n2nnc(-c3nc(-c4ccccc4)no3)c2N)c1 please
Output line: 0.0

Input line: Do the same for COc1cccc(-n2nnc(-c3nc(-c4ccccn4)no3)c2N)c1 please
Output line: 0.0

Input line: Do the same for Nc1c(-c2nc(-c3cccs3)no2)nnn1-c1ccc2ccccc2c1 please
Output line: 1.0

Input line: Do the same for Nc1c(-c2nc(-c3cccs3)no2)nnn1-c1ccccc1 please
Output line: 1.0

Input line: Do the same for Cc1cccc(-n2nnc(-c3nc(-c4cccs4)no3)c2N)c1C please
Output line: 1.0

Input line: Do the same for Nc1c(-c2nnc(-c3cccs3)o2)nnn1-c1cccc(F)c1 please
Output line: 1.0

Input line: Do the same for Nc1c(-c2nc(-c3cccs3)no2)nnn1-c1ccc(CO)cc1 please
Output line: 0.0

Input line: Do the same for C#CCOc1ccc(-c2noc(-c3nnn(-c4cccc(/C(C)=N/O)c4)c3N)n2)cc1 please
Output line: 0.0

Input line: Do the same for COc1cccc(-n2nnc(-c3nc(-c4ccco4)no3)c2N)c1 please
Output line: 0.0

Input line: Do the same for CN(C)c1cccc(-n2nnc(-c3nc(-c4cccs4)no3)c2N)c1 please
Output line: 0.0

Input line: Do the same for c1ccc(-n2cc(-c3nc(-c4cccs4)no3)nn2)cc1 please
Output line: 1.0

Input line: Do the same for C/C(=N\O)c1cccc(-n2nnc(-c3nc(-c4ccc(OC(C)C)cc4)no3)c2N)c1 please
Output line: 1.0

Input line: Do the same for CC(=O)c1cccc(-n2nnc(-c3nc(-c4cccs4)no3)c2N)c1 please
Output line: 0.0

Input line: Do the same for COc1ccc(-c2noc(-c3nnn(-c4cccc(/C(C)=N/O)c4)c3N)n2)cc1 please
Output line: 1.0

Input line: Do the same for Nc1c(-c2nc(-c3cccs3)no2)nnn1-c1cccc(O)c1 please
Output line: 0.0

Input line: Do the same for Nc1c(-c2nc(-c3cccs3)no2)nnn1-c1cccc(-c2ccccc2)c1 please
Output line: 1.0

Input line: Do the same for CC(C)c1cccc(-n2nnc(-c3nc(-c4cccs4)no3)c2N)c1 please
Output line: 1.0

Input line: Do the same for C#CCOc1ccc(-n2nnc(-c3nc(-c4cccs4)no3)c2N)cc1 please
Output line: 1.0

Input line: Do the same for C=CCOc1ccc(-c2noc(-c3nnn(-c4cccc(/C(C)=N/O)c4)c3N)n2)cc1 please
Output line: 0.0

Input line: Do the same for COc1cccc(-n2cc(-c3nc(-c4cccs4)no3)nn2)c1 please
Output line: 0.0

Input line: Do the same for C/C(=N\O)c1cccc(-n2nnc(-c3nc(-c4cccs4)no3)c2N)c1 please
Output line: 0.0
